TESTED_ON: galectin-4N (human galectin-4 N-terminal CRD) (Homo sapiens, UniProt P56470)
Construct: gene LGALS4
Sequence (P56470 1-154): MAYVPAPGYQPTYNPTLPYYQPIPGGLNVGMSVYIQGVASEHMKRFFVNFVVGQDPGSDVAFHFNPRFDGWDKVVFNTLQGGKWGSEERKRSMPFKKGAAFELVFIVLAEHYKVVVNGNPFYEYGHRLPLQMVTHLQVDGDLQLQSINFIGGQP
PROCEDURE_TEXT: X-ray crystal structure ([…] Å) and competitive fluorescence anisotropy
Format: binding
MEASURED_PARAMETER: pKd
Scale explanation: pKd corresponds to minus log10 of a concentration expressed in moles per litre.

Query: Recorded pKd for O=S(=O)(O)O[C@H]1[C@@H](O)[C@@H](CO)O[C@@H](O[C@H]2[C@H](O)[C@@H](O)C(O)O[C@@H]2CO)[C@@H]1O (stereo partly shown) [3′SuL, lactose-3′-sulfate] , please?
Result: 3.29
